Biological target: T1, rat alpha CGRP (SEQ ID NO: 82) (rat)
T1 peptide: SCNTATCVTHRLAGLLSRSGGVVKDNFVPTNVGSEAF
Assay: cell-based or functional assay
assay-readout: IC50, CGRP-induced cAMP production, L6 cells

binder	measured-value
lipocalin mutein SEQ ID NO: 17 (designed binder, biotinylated by NHS chemistry for capture in SPR) QDSTSDLIPAPPLSKVPLQQNFQDNQFHGKWYVVGRAGNDVLREDKDPEKMEATIYELKEDKSYNVTDVGFVQKRCMYVTHTFVPGSQPGEFTLGNIESYPGVTSALVRVVSTDYNQHAMVFVKLVKQNRELFEITLYGRTKELTSELKENFIRFSKSLGLPENHIVFPVPIDQCIDGSAWSHPQFEK	0.06 nM
lipocalin mutein SEQ ID NO: 26 (designed binder, biotinylated by NHS chemistry for capture in SPR) QDSTSDLIPAPPLSKVPLQQNFQDNQFHGKWYVVGWAGNTLLREDKDPIKMQAKIYELKEDRSYNVTWVYFADKKCRYHIETFVPGSQPGEFTLGTIKSHPGETPILVRVVSTNYNQHAMVFFKGVNQNREIFEIILYGRTKELTNELKENFIRFSKSLGLPENHIVFPVPIDQCIDGSAWSHPQFEK	0.05 nM
lipocalin mutein SEQ ID NO: 20 (designed binder, biotinylated by NHS chemistry for capture in SPR) QDSTSDLIPAPPLSKVPLQQNFQDNQFHGKWYVVGRAGNDTLRKDKDPEKMEATIYELKEDKSYNVTDVGFVQKKCMYVIHTFVPGSQPGEFTLGNIKSYPGVTSALVRVVSTNYNQHAMVFVKLVKQNRELFEITLYGRTKELTSELKENFIRFSKSLGLPENHIVFPVPIDQCIDGSAWSHPQFEK	0.08 nM
